details: in methanol, 323.15 K
reportedMetric: solubility (mole fraction)

Challenge: State the recorded solubility (mole fraction) for this entry: CC1(C)COP(=O)(C(Nc2ccccc2)c2ccccc2)OC1 (stereo unspecified)
Response given: 0.00984

###

details: in methanol, 307.95 K
reportedMetric: solubility (mole fraction)
Give bare numbers.

Challenge: # solubility (mole fraction) lookup, item CC1(C)COP(=O)(C(Nc2ccccc2)c2ccccc2)OC1 (stereo unspecified)
Response given: 0.00541

###

settings: in 1,4-dioxane, 328.15 K
reportedMetric: solubility (mole fraction)
Numbers only.

Challenge: Recorded solubility (mole fraction) of CC1(C)COP(=O)(C(Nc2ccccc2)c2ccccc2)OC1 (stereo unspecified) , please.
Response given: 0.023

###

settings: in THF, 283.65 K
reportedMetric: solubility (mole fraction)
Numbers only.

Challenge: Consider the molecule shown here: CC1(C)COP(=O)(C(Nc2ccccc2)c2ccccc2)OC1 (stereo unspecified) What is its recorded solubility (mole fraction)?
Response given: 0.00648

###

conditions: in chloroform, 327.95 K
reportedMetric: solubility (mole fraction)
Answers are plain numbers.

Challenge: // returns reported solubility (mole fraction) for input CC1(C)COP(=O)(C(Nc2ccccc2)c2ccccc2)OC1 (stereo unspecified)
Response given: 0.0646

###

details: in benzene, 298.25 K
reportedMetric: solubility (mole fraction)
Answers are plain numbers.

Challenge: State the recorded solubility (mole fraction) for this entry: CC1(C)COP(=O)(C(Nc2ccccc2)c2ccccc2)OC1 (stereo unspecified)
Response given: 0.00245

###

conditions: in benzene, 303.15 K
reportedMetric: solubility (mole fraction)
Give bare numbers.

Challenge: Requested read-out: solubility (mole fraction). Entry: CC1(C)COP(=O)(C(Nc2ccccc2)c2ccccc2)OC1 (stereo unspecified)
Response given: 0.00301

###

conditions: in chloroform, 322.75 K
reportedMetric: solubility (mole fraction)
Answers are plain numbers.

Challenge: Suppose we examine the molecule CC1(C)COP(=O)(C(Nc2ccccc2)c2ccccc2)OC1 (stereo unspecified) ; what solubility (mole fraction) value has been reported?
Response given: 0.0591

###

settings: in ethyl acetate, 327.95 K
reportedMetric: solubility (mole fraction)
Answers are plain numbers.

Challenge: What value of measured solubility (mole fraction) is listed for CC1(C)COP(=O)(C(Nc2ccccc2)c2ccccc2)OC1 (stereo unspecified) ?
Response given: 0.00913

###

conditions: in ethyl acetate, 322.95 K
reportedMetric: solubility (mole fraction)
Numbers only.

Challenge: Fill in the blank: the reported solubility (mole fraction) of CC1(C)COP(=O)(C(Nc2ccccc2)c2ccccc2)OC1 (stereo unspecified) is ____.
Response given: 0.00781

###

conditions: in chloroform, 288.85 K
reportedMetric: solubility (mole fraction)
One number for each entry.

Challenge: Suppose we examine the compound CC1(C)COP(=O)(C(Nc2ccccc2)c2ccccc2)OC1 (stereo unspecified) ; what solubility (mole fraction) value has been reported?
Response given: 0.0403

###

conditions: in tetrachloromethane, 288.35 K
reportedMetric: solubility (mole fraction)
Numbers only.

Challenge: Endpoint output: solubility (mole fraction) of CC1(C)COP(=O)(C(Nc2ccccc2)c2ccccc2)OC1 (stereo unspecified) . Value?
Response given: 0.00026

###

conditions: in dichloromethane, 293.25 K
reportedMetric: solubility (mole fraction)
Numbers only.

Challenge: Return reported solubility (mole fraction); argument: CC1(C)COP(=O)(C(Nc2ccccc2)c2ccccc2)OC1 (stereo unspecified)
Response given: 0.0152

###

details: in methanol, 293.65 K
reportedMetric: solubility (mole fraction)
Numbers only.

Challenge: Entry CC1(C)COP(=O)(C(Nc2ccccc2)c2ccccc2)OC1 (stereo unspecified) has what solubility (mole fraction)?
Response given: 0.00312

From: BigSolDB 2.1
